# SYSTEM: RELA (p65) subunit of heterodimer;p50 subunit (Homo sapiens;Homo sapiens, UniProt Q04206;P19838 1-307;7-356)
# Sequence (Q04206 1-307, chain 1 of 2): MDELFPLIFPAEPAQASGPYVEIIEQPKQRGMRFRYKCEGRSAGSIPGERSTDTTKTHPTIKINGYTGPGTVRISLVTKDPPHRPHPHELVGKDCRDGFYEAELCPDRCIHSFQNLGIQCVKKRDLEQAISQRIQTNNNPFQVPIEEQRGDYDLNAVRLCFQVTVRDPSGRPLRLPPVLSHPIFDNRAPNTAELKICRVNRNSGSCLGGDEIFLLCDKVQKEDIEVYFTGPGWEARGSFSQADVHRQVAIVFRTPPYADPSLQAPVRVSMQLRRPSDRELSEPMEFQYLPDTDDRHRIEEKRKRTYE
# Sequence (P19838 7-356, chain 2 of 2): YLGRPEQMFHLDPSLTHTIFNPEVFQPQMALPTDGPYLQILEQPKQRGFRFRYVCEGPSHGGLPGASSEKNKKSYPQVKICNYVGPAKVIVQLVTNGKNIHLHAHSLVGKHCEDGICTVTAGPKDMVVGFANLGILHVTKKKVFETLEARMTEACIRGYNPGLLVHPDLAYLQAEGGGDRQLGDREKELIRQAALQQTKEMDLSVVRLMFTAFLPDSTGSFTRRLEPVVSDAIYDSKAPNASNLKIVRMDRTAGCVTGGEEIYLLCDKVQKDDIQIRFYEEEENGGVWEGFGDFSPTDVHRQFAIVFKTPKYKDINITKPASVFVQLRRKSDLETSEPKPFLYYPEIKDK
# EXPERIMENT SUMMARY: protein binding microarray; high values mean tight binding
# COND: dsDNA, one strand shown

SEQUENCE CONTENT	binding signal, z-score
CAGGACTTCCT	-0.403
AGGTGCGTCCT	-0.82
CAGGAACTCCC	0.636
GAGAGCGCCCT	-0.903
AAGAAGGTCCT	-1.13
CAAAGAACCCT	-0.631
CAAATTTTCCC	1.48
GAATTTGTCCC	1.01
GAGATAGTCCT	-0.973
AAATAAACCCT	-0.112
CAAAAACCCCT	1.84
AAGTGCCTCCC	-0.501
GAAGATACCCT	0.217
GGAGTGACCCC	-0.353
CAGTAATTCCC	1.12
GAAGAGCCCCT	0.604
CAATTCGTCCC	-0.0179
AAATTACTCCC	0.132
GGAAGAACCCC	1.02
CGAGGAATCCT	-0.879
